FYI, the data here is from PubChem BioAssay AID2060610.

tested on: 616215-338-R-J1-PDC complex spheroids, viability % test/control; test: Anticancer human tumor 616215-338-R-J1-PDC patient-derived colon adenocarcinoma cell line growth inhibition [CLK]; details: second compound 0.316 µM; first compound 0.1 µM; stronger effect = lower value
observedProperty: viability, T/C (%)
I only need the number, in %, no unit after it.

Please review the entries below; each comes with its answer.
compound: CC(CO)NC(=O)c1cc(-c2ccc(Cl)cc2)nn(-c2cnn(C)c2)c1=O (stereo not given) + CN1CCN(c2cc(C(=O)Nc3cc4cc(-c5cnn(C)c5)ccc4cn3)ccn2)CC1
testTarget: 616215-338-R-J1-PDC complex spheroids, viability % test/control
measuredValue: 41.5
--
compound: COC1C=CCC(C)C(C)S(=O)(=O)NC(=O)c2ccc3c(c2)N(CC2CCC21)CC1(CCCc2cc(Cl)ccc21)CO3 (stereo not given) + CN1CCN(c2cc(C(=O)Nc3cc4cc(-c5cnn(C)c5)ccc4cn3)ccn2)CC1
testTarget: 616215-338-R-J1-PDC complex spheroids, viability % test/control
measuredValue: 9.53
--
compound: CC(=O)O[C@H]1C(=O)[C@@]2(C)[C@H]([C@H](OC(=O)c3ccccc3)[C@]3(O)C[C@H](OC(=O)[C@H](O)[C@@H](NC(=O)c4ccccc4)c4ccccc4)C(C)=C1C3(C)C)[C@]1(OC(C)=O)CO[C@@H]1C[C@@H]2O + CN1CCN(c2cc(C(=O)Nc3cc4cc(-c5cnn(C)c5)ccc4cn3)ccn2)CC1
testTarget: 616215-338-R-J1-PDC complex spheroids, viability % test/control
measuredValue: 18

// query Tell me its viability, T/C given C=C(F)C(=O)N1CCN(c2nc(OCC3CCCN3C)nc3c2CCN(c2cccc4cccc(Cl)c24)C3)CC1CC#N (stereo not given) + CNC(=O)c1ccc(Nc2nc(OC3CCCC3)c3c(-c4ccc5nc(C)oc5c4)c[nH]c3n2)c(OC)c1 as the entry.
// result 45.2

// query Tell me its viability, T/C given CC1(C)CCC(CN2CCN(c3ccc(C(=O)NS(=O)(=O)c4ccc(NCC5CCOCC5)c([N+](=O)[O-])c4)c(Oc4cnc5[nH]ccc5c4)c3)CC2)=C(c2ccc(Cl)cc2)C1 + CNC(=O)c1ccc(Nc2nc(OC3CCCC3)c3c(-c4ccc5nc(C)oc5c4)c[nH]c3n2)c(OC)c1 as the entry.
// result 49

---

log10(IC50) values, listed per item
system: 616215-338-R-J1-PDC complex spheroids, viability % test/control; assay: Anticancer human tumor 616215-338-R-J1-PDC cell line growth inhibition [CLK]; details: curve of first compound; second compound 0.0316 µM;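 also: spheroids exposed to agents for 7 days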
Heads up, the numbers here are log10 of IC50 in nM units.

compound: CCCS(=O)(=O)Nc1ccc(F)c(C(=O)c2c[nH]c3ncc(-c4ccc(Cl)cc4)cc23)c1F + CNC(=O)c1ccc(Nc2nc(OC3CCCC3)c3c(-c4ccc5nc(C)oc5c4)c[nH]c3n2)c(OC)c1
log10(IC50): 3.84
//
compound: CC(C)CC(NC(=O)C(Cc1ccccc1)NC(=O)c1cnccn1)B(O)O (stereo not given) + CNC(=O)c1ccc(Nc2nc(OC3CCCC3)c3c(-c4ccc5nc(C)oc5c4)c[nH]c3n2)c(OC)c1
log10(IC50): 0.73
//
compound: COc1cccc2c1C(=O)c1c(O)c3c(c(O)c1C2=O)CC(O)(C(=O)CO)CC3OC1CC(N)C(O)C(C)O1 (stereo not given) + CNC(=O)c1ccc(Nc2nc(OC3CCCC3)c3c(-c4ccc5nc(C)oc5c4)c[nH]c3n2)c(OC)c1
log10(IC50): 2.52
//
compound: Nc1ccccc1NC(=O)c1ccc(CNC(=O)OCc2cccnc2)cc1 + CNC(=O)c1ccc(Nc2nc(OC3CCCC3)c3c(-c4ccc5nc(C)oc5c4)c[nH]c3n2)c(OC)c1
log10(IC50): 3.71

With those in mind, consider the next compound.
// query Tell me its log10(IC50) given CC(C)CC(NC(=O)C(Cc1ccccc1)NC(=O)c1cnccn1)B(O)O (stereo not given) + CN1CCN(c2cc(C(=O)Nc3cc4cc(-c5cnn(C)c5)ccc4cn3)ccn2)CC1 as the entry.
// result 0.74

---

tested on: 616215-338-R-J1-PDC complex spheroids, viability % test/control; assay: Anticancer human tumor 616215-338-R-J1-PDC cell line growth inhibition [CLK]; conditions: second compound 0.316 µM; first compound 0.316 µM; active = viability on the fitted dose curve at most 10% of control; inactive = the rest;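 also: spheroids exposed to agents for 7 days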
Choose the fitting class; nothing outside active, inactive is accepted.

Reference set (8 entries):
compound: O=c1[nH]cc(F)c(=O)[nH]1 + CNC(=O)c1ccc(Nc2nc(OC3CCCC3)c3c(-c4ccc5nc(C)oc5c4)c[nH]c3n2)c(OC)c1
groupLabel: inactive
//
compound: Nc1ccn(C2OC(CO)C(O)C2(F)F)c(=O)n1 (centres undefined) + CNC(=O)c1ccc(Nc2nc(OC3CCCC3)c3c(-c4ccc5nc(C)oc5c4)c[nH]c3n2)c(OC)c1
groupLabel: inactive
//
compound: Nc1ccccc1NC(=O)c1ccc(CNC(=O)OCc2cccnc2)cc1 + CN1CCN(c2cc(C(=O)Nc3cc4cc(-c5cnn(C)c5)ccc4cn3)ccn2)CC1
groupLabel: inactive
//
compound: Nc1ccccc1NC(=O)c1ccc(CNC(=O)OCc2cccnc2)cc1 + CNC(=O)c1ccc(Nc2nc(OC3CCCC3)c3c(-c4ccc5nc(C)oc5c4)c[nH]c3n2)c(OC)c1
groupLabel: inactive
//
compound: CCN1CCN(Cc2ccc(Nc3ncc(F)c(-c4cc(F)c5nc(C)n(C(C)C)c5c4)n3)nc2)CC1 + CN1CCN(c2cc(C(=O)Nc3cc4cc(-c5cnn(C)c5)ccc4cn3)ccn2)CC1
groupLabel: inactive
//
compound: O=c1[nH]cc(F)c(=O)[nH]1 + CN1CCN(c2cc(C(=O)Nc3cc4cc(-c5cnn(C)c5)ccc4cn3)ccn2)CC1
groupLabel: inactive
//
compound: COc1c(OCCCN2CCOCC2)ccc2c3n(c(=NC(=O)c4cnc(N)nc4)nc12)CCN3 + CN1CCN(c2cc(C(=O)Nc3cc4cc(-c5cnn(C)c5)ccc4cn3)ccn2)CC1
groupLabel: active
//
compound: COc1cccc2c1C(=O)c1c(O)c3c(c(O)c1C2=O)CC(O)(C(=O)CO)CC3OC1CC(N)C(O)C(C)O1 (centres undefined) + CNC(=O)c1ccc(Nc2nc(OC3CCCC3)c3c(-c4ccc5nc(C)oc5c4)c[nH]c3n2)c(OC)c1
groupLabel: inactive

As a next step, examine the compound that follows.
// query What was the test verdict on C=CC(=O)N1CCN(c2nc(=O)n(-c3c(C)ccnc3C(C)C)c3nc(-c4c(O)cccc4F)c(F)cc23)C(C)C1 (centres undefined) + CN1CCN(c2cc(C(=O)Nc3cc4cc(-c5cnn(C)c5)ccc4cn3)ccn2)CC1 ?
// result inactive

---

test system: 616215-338-R-J1-PDC complex spheroids, viability % test/control; assay: Anticancer human tumor 616215-338-R-J1-PDC cell line growth inhibition [CLK]; settings: second compound 0.1 µM; first compound 0.0316 µM; stronger effect = lower value;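 also: spheroids exposed to agents for 7 days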;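 as to viability, T/C: 100% = DMSO vehicle wells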
viability, T/C values, listed per item
I only need the number, in %, no unit after it.

molecule: C=C(F)C(=O)N1CCN(c2nc(OCC3CCCN3C)nc3c2CCN(c2cccc4cccc(Cl)c24)C3)CC1CC#N (stereo not given) + CNC(=O)c1ccc(Nc2nc(OC3CCCC3)c3c(-c4ccc5nc(C)oc5c4)c[nH]c3n2)c(OC)c1
viability, T/C [%]: 46

molecule: COC1C=CCC(C)C(C)S(=O)(=O)NC(=O)c2ccc3c(c2)N(CC2CCC21)CC1(CCCc2cc(Cl)ccc21)CO3 (stereo not given) + CNC(=O)c1ccc(Nc2nc(OC3CCCC3)c3c(-c4ccc5nc(C)oc5c4)c[nH]c3n2)c(OC)c1
viability, T/C [%]: 56.5

molecule: COc1c(OCCCN2CCOCC2)ccc2c3n(c(=NC(=O)c4cnc(N)nc4)nc12)CCN3 + CNC(=O)c1ccc(Nc2nc(OC3CCCC3)c3c(-c4ccc5nc(C)oc5c4)c[nH]c3n2)c(OC)c1
viability, T/C [%]: 57.7

With those in mind, consider the next molecule.
// query Tell me its viability, T/C given CCc1c2c(nc3ccc(O)cc13)-c1cc3c(c(=O)n1C2)COC(=O)[C@]3(O)CC + CNC(=O)c1ccc(Nc2nc(OC3CCCC3)c3c(-c4ccc5nc(C)oc5c4)c[nH]c3n2)c(OC)c1 as the entry.
// result 27.3

---

tested on: 616215-338-R-J1-PDC complex spheroids, viability % test/control; experiment: Anticancer human tumor 616215-338-R-J1-PDC cell line growth inhibition [CLK]; settings: second compound 0.1 µM; first compound 0.1 µM; stronger effect = lower value;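 also: spheroids exposed to agents for 7 days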;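 as to viability, T/C: 100% = DMSO vehicle wells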
viability, T/C values, listed per item

Please review the entries below; each comes with its answer.
compound: C=CC(=O)N1CCN(c2nc(=O)n(-c3c(C)ccnc3C(C)C)c3nc(-c4c(O)cccc4F)c(F)cc23)C(C)C1 (stereo not given) + CN1CCN(c2cc(C(=O)Nc3cc4cc(-c5cnn(C)c5)ccc4cn3)ccn2)CC1
viability, T/C: 113%
//
compound: CC1(C)CCC(CN2CCN(c3ccc(C(=O)NS(=O)(=O)c4ccc(NCC5CCOCC5)c([N+](=O)[O-])c4)c(Oc4cnc5[nH]ccc5c4)c3)CC2)=C(c2ccc(Cl)cc2)C1 + CN1CCN(c2cc(C(=O)Nc3cc4cc(-c5cnn(C)c5)ccc4cn3)ccn2)CC1
viability, T/C: 118%
//
compound: C#Cc1c(F)ccc2cc(O)cc(-c3ncc4c(N5CC6CCC(C5)N6)nc(OCC56CCCN5CC(F)C6)nc4c3F)c12 (stereo not given) + CNC(=O)c1ccc(Nc2nc(OC3CCCC3)c3c(-c4ccc5nc(C)oc5c4)c[nH]c3n2)c(OC)c1
viability, T/C: 56.2%

// query Tell me its viability, T/C given COc1ccc([C@@H](O)c2cc(-c3ncnc4cc(N5CCOCC5)ccc34)c(F)cc2Cl)nn1 + CN1CCN(c2cc(C(=O)Nc3cc4cc(-c5cnn(C)c5)ccc4cn3)ccn2)CC1 as the entry.
// result 107%

// query Tell me its viability, T/C given CC1(C)CCC(CN2CCN(c3ccc(C(=O)NS(=O)(=O)c4ccc(NCC5CCOCC5)c([N+](=O)[O-])c4)c(Oc4cnc5[nH]ccc5c4)c3)CC2)=C(c2ccc(Cl)cc2)C1 + CNC(=O)c1ccc(Nc2nc(OC3CCCC3)c3c(-c4ccc5nc(C)oc5c4)c[nH]c3n2)c(OC)c1 as the entry.
// result 50.6%
